The following compounds are listed with their measured IC50 values.
Target: Androgen receptor (Homo sapiens, UniProt P10275)
Sequence (P10275 whole entry): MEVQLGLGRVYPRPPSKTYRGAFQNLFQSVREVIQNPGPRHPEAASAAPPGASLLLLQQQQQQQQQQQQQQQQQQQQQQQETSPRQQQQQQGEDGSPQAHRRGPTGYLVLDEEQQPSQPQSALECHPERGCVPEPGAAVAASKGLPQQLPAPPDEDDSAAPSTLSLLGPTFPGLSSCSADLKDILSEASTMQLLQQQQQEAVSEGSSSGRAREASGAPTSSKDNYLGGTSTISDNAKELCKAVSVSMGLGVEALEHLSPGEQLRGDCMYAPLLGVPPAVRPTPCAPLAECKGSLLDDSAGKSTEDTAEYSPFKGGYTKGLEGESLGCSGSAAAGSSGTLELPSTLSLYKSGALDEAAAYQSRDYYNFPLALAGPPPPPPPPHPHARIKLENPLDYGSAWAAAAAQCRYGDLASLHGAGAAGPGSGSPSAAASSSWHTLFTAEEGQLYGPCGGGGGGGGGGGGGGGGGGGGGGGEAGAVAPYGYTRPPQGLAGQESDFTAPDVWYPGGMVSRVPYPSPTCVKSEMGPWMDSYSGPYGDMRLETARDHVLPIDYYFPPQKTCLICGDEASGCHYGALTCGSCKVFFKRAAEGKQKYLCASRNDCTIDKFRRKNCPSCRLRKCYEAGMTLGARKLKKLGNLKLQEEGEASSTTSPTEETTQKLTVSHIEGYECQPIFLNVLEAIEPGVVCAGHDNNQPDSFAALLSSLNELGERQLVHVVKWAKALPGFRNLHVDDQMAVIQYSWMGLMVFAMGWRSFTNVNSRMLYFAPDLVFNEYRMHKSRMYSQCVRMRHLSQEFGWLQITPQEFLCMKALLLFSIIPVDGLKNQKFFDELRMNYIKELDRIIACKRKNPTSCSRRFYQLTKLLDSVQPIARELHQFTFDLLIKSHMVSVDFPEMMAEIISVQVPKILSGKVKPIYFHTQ
Test: Antagonist activity at AR in human LNCAP cells assessed as reduction in DHT-induced transcriptional activation after 24 hrs by luciferase reporter gene assay
Measure: IC50 (µM)

>>> assay_value("CCOc1ccccc1/C=C/C(=O)c1cc(Br)ccc1O")
5.27
>>> assay_value("COc1ccc(/C=C/C(=O)c2cc(Cl)ccc2O)cc1OC")
5.25
>>> assay_value("O=C(/C=C/c1ccccc1O)c1cc(I)ccc1O")
1.64
>>> assay_value("O=C1CC(c2ccccc2O)Oc2ccc(I)cc21 (stereo not drawn)")
4.26
>>> assay_value("O=C1CC(c2ccccc2O)Oc2c(Br)cc(Br)cc21 (stereo not drawn)")
3.57
>>> assay_value("COc1cc(/C=C/C(=O)c2cc(Cl)ccc2O)ccc1O")
5.95
>>> assay_value("O=C(/C=C/c1ccc2c(c1)OCO2)c1cc(Cl)ccc1O")
4.36
>>> assay_value("COc1ccc2oc(-c3ccccc3OC)cc(=O)c2c1")
6.19

Source: ChEMBL document CHEMBL4270636
